- tgt: Excitatory amino acid transporter 2 (Homo sapiens)
- assay_notes: Displacement of [3H]D-Asp from human EAAT2 receptor expressed in HEK293 cells
- study_conditions: hek293
measure: IC50

Ask: Can you look up the measured IC50 of N#CC1=C(N)OC2=C(C(=O)CC(c3ccccc3)C2)C1c1c[nH]c2ccccc12 (stereo unspecified) for me?
Result: > 100 µM

----------
- tgt: Excitatory amino acid transporter 3 (Homo sapiens)
- Sequence (P43005 whole entry): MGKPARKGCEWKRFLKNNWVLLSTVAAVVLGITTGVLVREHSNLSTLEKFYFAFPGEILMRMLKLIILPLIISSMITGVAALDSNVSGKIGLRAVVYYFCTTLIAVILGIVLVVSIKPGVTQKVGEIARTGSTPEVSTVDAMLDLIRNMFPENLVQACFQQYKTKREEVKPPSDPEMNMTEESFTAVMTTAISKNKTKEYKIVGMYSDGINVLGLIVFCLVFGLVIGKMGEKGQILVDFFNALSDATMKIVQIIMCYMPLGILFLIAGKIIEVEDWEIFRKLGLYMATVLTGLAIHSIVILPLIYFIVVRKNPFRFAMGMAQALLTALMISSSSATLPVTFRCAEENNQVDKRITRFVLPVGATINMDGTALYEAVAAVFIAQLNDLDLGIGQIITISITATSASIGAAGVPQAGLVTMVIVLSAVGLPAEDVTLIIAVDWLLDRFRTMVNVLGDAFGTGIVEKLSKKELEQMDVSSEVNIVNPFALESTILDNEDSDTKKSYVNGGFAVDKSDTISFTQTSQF
- assay_notes: Displacement of [3H]D-Asp from human EAAT3 receptor expressed in HEK293 cells
- study_conditions: hek293
pIC50: −log10 of the molar value.
measure: pIC50

Ask: GET /values?readout=pIC50&item= N#CC1=C(N)OC2=C(C(=O)CC(c3ccccc3)C2)C1c1c[nH]c2ccccc12 (stereo unspecified)
Result: < 4.00

----------
Below, each entry is listed with its recorded IC50.
- tgt: Excitatory amino acid transporter 2 (Homo sapiens, UniProt P43004)
- Sequence (P43004 whole entry): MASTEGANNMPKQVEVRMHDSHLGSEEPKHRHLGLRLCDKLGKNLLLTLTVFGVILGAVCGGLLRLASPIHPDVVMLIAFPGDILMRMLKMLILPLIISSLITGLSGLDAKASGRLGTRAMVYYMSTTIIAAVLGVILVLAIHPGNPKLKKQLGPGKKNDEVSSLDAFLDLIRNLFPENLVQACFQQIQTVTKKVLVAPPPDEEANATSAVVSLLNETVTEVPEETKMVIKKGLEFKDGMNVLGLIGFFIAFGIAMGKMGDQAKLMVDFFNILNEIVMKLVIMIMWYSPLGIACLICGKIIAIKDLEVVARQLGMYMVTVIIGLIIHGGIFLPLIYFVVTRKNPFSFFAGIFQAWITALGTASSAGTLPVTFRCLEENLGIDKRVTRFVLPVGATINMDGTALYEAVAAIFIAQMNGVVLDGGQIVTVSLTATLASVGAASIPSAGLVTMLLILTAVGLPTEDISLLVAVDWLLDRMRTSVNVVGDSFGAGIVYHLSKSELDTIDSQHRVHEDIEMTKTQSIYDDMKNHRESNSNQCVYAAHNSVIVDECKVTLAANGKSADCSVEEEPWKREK
- assay_notes: Displacement of [3H]D-Asp from human EAAT2 receptor expressed in HEK293 cells

Ask: State the recorded IC50 for this entry: COc1ccc(C2C(C#N)=C(N)OC3=C2C(=O)CC(c2ccccc2Cl)C3)cc1 (stereo not given)
Result: > 316 µM

Ask: Please look up its IC50: COc1ccc(C2C(C#N)=C(N)OC3=C2C(=O)CC(c2ccccc2)C3)cc1 (stereo not given)
Result: > 100 µM

Ask: Need IC50, item N#CC1=C(N)OC2=C(C(=O)CC(c3ccccc3)C2)C1c1c[nH]c2ccccc12 (stereo not given)
Result: > 100 µM

Ask: Record request: IC50 value, item COc1ccc(C2C(C#N)=C(N)OC3=C2C(=O)CC(c2ccco2)C3)cc1OC(=O)N1CCOCC1 (stereo not given)
Result: > 316 µM

Ask: What measured IC50 goes with N#CC1=C(N)OC2=C(C1)C(=O)CC(c1ccccc1)C2 (stereo not given) ?
Result: > 316 µM

----------
Reported IC50 is given for each of the following compounds.
- tgt: Excitatory amino acid transporter 1 (Homo sapiens)
- Sequence (P43003 whole entry): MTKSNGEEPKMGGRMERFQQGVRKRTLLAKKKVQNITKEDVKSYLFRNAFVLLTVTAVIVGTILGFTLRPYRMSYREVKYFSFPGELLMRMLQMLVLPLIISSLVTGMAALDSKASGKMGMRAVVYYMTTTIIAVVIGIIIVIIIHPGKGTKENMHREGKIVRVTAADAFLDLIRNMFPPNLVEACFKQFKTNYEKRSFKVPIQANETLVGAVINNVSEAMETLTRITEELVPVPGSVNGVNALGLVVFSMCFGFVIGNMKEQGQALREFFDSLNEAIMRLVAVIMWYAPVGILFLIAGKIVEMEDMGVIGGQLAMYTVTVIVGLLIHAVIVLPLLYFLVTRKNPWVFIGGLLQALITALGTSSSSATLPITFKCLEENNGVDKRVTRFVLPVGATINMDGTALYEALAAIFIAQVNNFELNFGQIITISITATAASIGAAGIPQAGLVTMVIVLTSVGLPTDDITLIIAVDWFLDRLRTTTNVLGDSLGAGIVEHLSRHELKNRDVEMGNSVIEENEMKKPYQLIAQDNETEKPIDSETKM
- assay_notes: Displacement of [3H]D-Asp from human EAAT1 receptor expressed in HEK293 cells

COc1cccc(C2C(C#N)=C(N)OC3=C2C(=O)CC(c2ccccc2)C3)c1OC (stereo not given) :: ~50 µM

Now let's try a different one.
Ask: Return reported IC50; argument: CC1CC(=O)C2=C(C1)OC(N)=C(C#N)C2c1ccc2c(c1)OCO2 (stereo not given)
Result: > 300 µM

----------
- tgt: Excitatory amino acid transporter 2 (Homo sapiens, UniProt P43004)
- assay_notes: Displacement of [3H]D-Asp from human EAAT2 receptor expressed in HEK293 cells
pIC50: −log10 of the molar value.
measure: pIC50

Check out these entries, answers already filled in.
COc1cccc(C2C(C#N)=C(N)OC3=C2C(=O)CC(c2ccccc2)C3)c1OC (stereo not given) :: < 4.00
N#CC1=C(N)OC2=C(C(=O)CC(c3cccs3)C2)C1c1ccc([N+](=O)[O-])cc1 (stereo not given) :: < 3.50
CC1C(C#N)=C(N)OC2=C1C(=O)CC(c1ccccc1)C2 (stereo not given) :: < 3.50
N#CC1=C(N)OC2=C(C(=O)CCC2)C1c1ccccc1F (stereo not given) :: < 3.50
N#CC1=C(N)OC2=C(C(=O)CC(c3ccccc3)C2)C1c1cccs1 (stereo not given) :: < 4.00
COc1cc(C2C(C#N)=C(N)OC3=C2C(=O)CC(c2ccccc2)C3)ccc1OCc1c(F)cccc1Cl (stereo not given) :: < 4.00
CC1CC(=O)C2=C(C1)OC(N)=C(C#N)C2c1ccc2c(c1)OCO2 (stereo not given) :: < 3.50
N#CC1=C(N)OC2=C(C(=O)CC(c3ccccc3)C2)C1c1ccc(-c2ccccc2)cc1 (stereo not given) :: < 4.00
N#CC1=C(N)OC2=C(C(=O)CC(c3ccccc3)C2)C1c1cc(Br)cs1 (stereo not given) :: < 4.00
N#CC1=C(N)OC2=C(C(=O)CC(c3ccccc3)C2)C1c1cccnc1 (stereo not given) :: < 3.50

Ask: Query for Excitatory amino acid transporter 2 (Homo sapiens, UniProt P43004): what pIC50 does the record show for N#CC1=C(N)OC2=C(C(=O)CC(c3ccccc3)C2)C1c1ccc([N+](=O)[O-])cc1 (stereo not given) ?
Result: < 4.00

Ask: Give recorded pIC50 with Excitatory amino acid transporter 2 (Homo sapiens, UniProt P43004) for the following molecule: N#CC1=C(N)OC2=C(C(=O)CC(c3ccco3)C2)C1c1ccccc1 (stereo not given)
Result: < 3.50

Ask: Report pIC50 for CSc1ccc(C2C(C#N)=C(N)OC3=C2C(=O)CC(c2ccccc2)C3)cc1 (stereo not given) tested on Excitatory amino acid transporter 2 (Homo sapiens, UniProt P43004).
Result: < 4.00

Ask: Query for Excitatory amino acid transporter 2 (Homo sapiens, UniProt P43004): what pIC50 does the record show for N#CC1=C(N)OC2=C(C(=O)CC(c3ccccc3)C2)C1c1cccc2ccccc12 (stereo not given) ?
Result: < 4.00

Ask: GET /values?readout=pIC50&system=Excitatory amino acid transporter 2 (Homo sapiens, UniProt P43004)&item= N#CC1=C(N)OC2=C(C(=O)CC(c3ccccc3)C2)C1c1ccccc1F (stereo not given)
Result: < 4.00
